- Test system: LPS-stimulated BV2 microglial cells
- TEST_PROTOCOL: PGE2 production in LPS-stimulated BV2 cells
- Assay type: cell-based, murine
- TEST_CONTEXT: Mus musculus, BV-2, mean ± SD of triplicate experiments, read-out: PGE2 Inhibitory Effects, BV2 Cells (IC50)
READOUT_LABEL: IC50 (µM)

INSERT INTO results (smiles, tested_target, readout_label, quantitative_readout) VALUES
  ('C/C=C/c1cc(=O)c(C(=O)c2c(OC)cc(OC)cc2C(=O)OC)co1', 'LPS-stimulated BV2 microglial cells', 'IC50', 32.3);

(A) CC1=Cc2oc3cc(O)c(O)cc3c(=O)c2CO1
(B) C[C@H]1CC(=O)C2=C(O1)c1cc(O)c(O)cc1OC2
**Query** Exercise: compare A and B ; which one has the greater IC50? Select an item and report its label.
**Result** A
(A: 25.2 µM, B: 3.2 µM)
